Just for reference, PubChem BioAssay (NCI) is where these values come from.

Tested on: NCI-H23 lung
TEST METHOD NOTES: NCI-60 one-dose screen, 48 h (100 = growth as untreated, 0 = no growth, -100 = all killed)
CONDITION INFO: 10 µM unless noted
This is part of a sample that, as a whole, favours compounds with a hit. Of some 83,000 tested, about 20% had one in any assay.
OBSERVATION TYPE: growth (%)
Reply numerically in %, unit not repeated.

// known answers, use as guide
// lookup growth for `CC(C)CSc1nc(NCCc2c[nH]c3ccccc23)c(C#N)c(-c2ccc(F)cc2)n1`
72.9

Next molecule: `O=C1c2c(c3c4cc(F)ccc4oc3c3[nH]c4ccc(Br)cc4c23)C(=O)N1O`
7.64

Next molecule: `O=C(COc1ccc(NC(=O)Nc2ccc(Cl)cc2)cc1)N/N=C/c1ccccc1`
-94.5

Next molecule: C=C1CC[C@@H]2[C@]3(C)COC(c4cn[nH]c4-c4ccc(F)cc4)O[C@@H]3CC[C@@]2(C)[C@@H]1C/C=C1/C(=O)OCC1O (stereo partly specified)
-67.3

Continuing:
// lookup growth for `O=c1oc2ccccc2cc1-c1csc(N=Nc2c(O)[nH]c3ccc(Cl)cc23)n1`
98.7
